- System: T1, human Claudin 6 (human, UniProt P56747 1-220)
- T1 sequence (looked up): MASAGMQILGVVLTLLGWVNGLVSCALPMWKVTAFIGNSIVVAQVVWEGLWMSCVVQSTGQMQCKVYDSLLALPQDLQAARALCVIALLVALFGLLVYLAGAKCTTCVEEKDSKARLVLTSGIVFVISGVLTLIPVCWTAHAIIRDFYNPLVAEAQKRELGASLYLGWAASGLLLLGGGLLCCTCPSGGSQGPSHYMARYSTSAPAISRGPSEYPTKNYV
- Method summary: cell-based or functional assay
Outcome measure: Min cell viability, OVCAR-3 (CLDN6 mid) (%)
Numbers only, in %.

Binder | Units symbol | Reported value
z5-DXD (antibody, V domains shown, DXD conjugated to the antibody; residues and drug load not stated) VH: QVQLVQSGAEVKKPGASVKVSCKASGYAFTGYTMNWVRQAPGQGLEWIGLSNPYNAGTIYNQKFKGRVTMTVDKSTSTVYMELSSLRSEDTAVYYCARNYYYGSSYAYYYAMDYWGQGTTVTVSS VL: DIVVTQSPSSLSTSVGDRVTITCRSSTGAVTTSNYANWVQEKPGKAFKGLIGGTNNRAPGVPARFSGSLSGDDAALTISSAQPEDFATYFCALWYSNHWVFGGGTKVEIK | % | 24.5
z5-LM-D03 (antibody, V domains shown, LM-D03 conjugated to the antibody (structure only as a drawing); residues and drug load not stated) VH: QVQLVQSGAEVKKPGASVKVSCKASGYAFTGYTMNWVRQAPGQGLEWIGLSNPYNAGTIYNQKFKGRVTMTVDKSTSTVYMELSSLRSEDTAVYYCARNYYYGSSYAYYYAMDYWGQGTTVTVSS VL: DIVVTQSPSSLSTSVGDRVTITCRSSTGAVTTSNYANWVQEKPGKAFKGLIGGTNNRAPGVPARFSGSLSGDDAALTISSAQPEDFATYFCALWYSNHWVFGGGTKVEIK | % | 20.3
z5-LM-D01 (antibody, V domains shown, LM-D01 conjugated to the antibody (structure only as a drawing); residues and drug load not stated) VH: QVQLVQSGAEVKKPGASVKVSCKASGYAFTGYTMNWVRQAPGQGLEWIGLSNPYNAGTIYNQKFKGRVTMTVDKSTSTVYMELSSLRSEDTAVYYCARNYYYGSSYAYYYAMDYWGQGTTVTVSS VL: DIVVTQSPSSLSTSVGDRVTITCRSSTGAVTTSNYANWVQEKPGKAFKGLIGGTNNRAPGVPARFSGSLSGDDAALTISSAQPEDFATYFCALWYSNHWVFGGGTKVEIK | % | 0.2

Next binder, Min cell viability, OVCAR-3 (CLDN6 mid) to be filled in.
Incoming: Please look up its Min cell viability, OVCAR-3 (CLDN6 mid): z5-MMAE (antibody, V domains shown, MMAE conjugated to the antibody; residues and drug load not stated) VH: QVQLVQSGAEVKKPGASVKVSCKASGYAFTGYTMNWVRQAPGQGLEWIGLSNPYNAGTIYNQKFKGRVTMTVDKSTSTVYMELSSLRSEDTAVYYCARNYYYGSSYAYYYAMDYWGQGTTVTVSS VL: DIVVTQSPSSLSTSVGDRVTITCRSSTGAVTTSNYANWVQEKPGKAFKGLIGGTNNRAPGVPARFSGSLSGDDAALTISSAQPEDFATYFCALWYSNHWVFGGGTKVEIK
Outgoing: 3.71
